What IC50 was measured for each of the following?
- assay.target: recombinant integrin α4β1 (Homo sapiens, UniProt P05556+P13612)
- Construct: purchased R&D Systems 5397-A3-050
- Sequence (P13612 34-970 limits assumed): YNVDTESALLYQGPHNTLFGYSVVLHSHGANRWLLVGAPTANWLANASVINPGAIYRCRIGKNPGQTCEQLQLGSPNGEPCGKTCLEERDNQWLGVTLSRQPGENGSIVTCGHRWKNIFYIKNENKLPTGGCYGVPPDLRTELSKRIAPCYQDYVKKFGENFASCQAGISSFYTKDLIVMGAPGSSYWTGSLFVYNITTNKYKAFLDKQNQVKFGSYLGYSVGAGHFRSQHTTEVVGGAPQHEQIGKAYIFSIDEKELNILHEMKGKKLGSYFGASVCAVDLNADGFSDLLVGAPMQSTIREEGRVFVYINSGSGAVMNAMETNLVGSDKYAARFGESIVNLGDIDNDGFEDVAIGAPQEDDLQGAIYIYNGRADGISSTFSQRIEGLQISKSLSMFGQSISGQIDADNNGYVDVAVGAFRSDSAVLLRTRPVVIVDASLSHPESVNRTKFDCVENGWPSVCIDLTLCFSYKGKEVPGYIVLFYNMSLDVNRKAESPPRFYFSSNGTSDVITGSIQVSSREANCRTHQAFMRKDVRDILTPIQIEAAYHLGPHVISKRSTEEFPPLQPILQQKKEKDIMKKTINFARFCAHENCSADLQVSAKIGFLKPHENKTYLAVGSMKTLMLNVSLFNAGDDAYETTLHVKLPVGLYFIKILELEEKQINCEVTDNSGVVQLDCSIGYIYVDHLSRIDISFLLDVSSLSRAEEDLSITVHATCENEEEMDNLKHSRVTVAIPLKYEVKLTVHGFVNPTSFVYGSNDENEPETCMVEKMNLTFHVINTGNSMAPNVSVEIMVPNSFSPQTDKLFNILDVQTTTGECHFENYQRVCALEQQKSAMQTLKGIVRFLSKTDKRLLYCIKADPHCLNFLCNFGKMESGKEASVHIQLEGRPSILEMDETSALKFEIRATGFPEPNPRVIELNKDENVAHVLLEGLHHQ
- Sequence (P05556 21-728 limits assumed): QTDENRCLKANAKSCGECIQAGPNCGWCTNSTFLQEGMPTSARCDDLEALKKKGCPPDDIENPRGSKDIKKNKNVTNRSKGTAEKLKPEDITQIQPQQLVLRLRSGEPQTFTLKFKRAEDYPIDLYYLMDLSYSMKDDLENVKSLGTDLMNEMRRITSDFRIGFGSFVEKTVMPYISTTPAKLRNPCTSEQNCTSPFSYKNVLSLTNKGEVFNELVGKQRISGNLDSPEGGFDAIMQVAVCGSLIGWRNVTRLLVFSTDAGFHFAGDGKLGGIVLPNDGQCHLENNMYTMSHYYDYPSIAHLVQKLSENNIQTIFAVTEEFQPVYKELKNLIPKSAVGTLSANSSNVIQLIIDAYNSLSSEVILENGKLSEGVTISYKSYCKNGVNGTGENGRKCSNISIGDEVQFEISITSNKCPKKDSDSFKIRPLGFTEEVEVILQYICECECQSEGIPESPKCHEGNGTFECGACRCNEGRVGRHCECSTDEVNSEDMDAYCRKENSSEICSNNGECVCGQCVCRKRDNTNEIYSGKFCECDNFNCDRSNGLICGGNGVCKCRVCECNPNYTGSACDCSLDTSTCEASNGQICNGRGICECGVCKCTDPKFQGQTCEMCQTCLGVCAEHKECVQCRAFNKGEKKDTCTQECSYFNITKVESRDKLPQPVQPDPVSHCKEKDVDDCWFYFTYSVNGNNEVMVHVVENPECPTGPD
- experiment: Integrin α4β1—VCAM-1 competition ELISA
- Assay type: binding
- assay.conditions: read-out: ELISA a4b1 Assay IC50
Hi, when you answer, please include the unit after the number. Thanks!

Request: IC50, test system recombinant integrin α4β1 (Homo sapiens, UniProt P05556+P13612), entry `CC(C)C[C@@H]1NC(=O)[C@H]2CCCCN2C(=O)[C@H](Cc2cscn2)NC(=O)[C@@H]2CCCN2[C@H](C(=O)NC(C)(C)C)[C@H](C)NC(=O)[C@H]([C@@H](C)O)NC(=O)[C@H](CC(=O)O)NC1=O`
80 nM

Request: IC50, test system recombinant integrin α4β1 (Homo sapiens, UniProt P05556+P13612), entry `CC(C)C[C@@H]1NC(=O)[C@H](Cc2c[nH]cn2)NC(=O)[C@@H]2CCCN2[C@H](C(=O)NC(C)(C)C)[C@@H](CSc2ccccc2)NC(=O)[C@H](C(C)C)NC(=O)[C@H](CC(=O)O)NC1=O`
185 nM

###

- assay.target: recombinant integrin α4β1 (Homo sapiens, UniProt P05556+P13612)
- Construct: purchased R&D Systems 5397-A3-050
- experiment: Integrin α4β1—VCAM-1 competition ELISA
- Type: binding
- assay.conditions: ratio of ELISA IC50s, α4β1 over α4β7
readout.name: ELISA Assay Ratio β1/β7
# print the numeric value only

Given the entry `CC(C)C[C@@H]1NC(=O)c2ccc(-c3ccc(N4CCN(C(=O)[C@H]5CCC[C@H]5C(=O)N5CCN(c6ccc(-c7ccc8cc7CNC(=O)[C@@H]7CCCN7[C@H](C(=O)NC(C)(C)C)[C@H](C)NC(=O)[C@H]([C@@H](C)O)NC(=O)[C@H](CC(=O)O)NC(=O)[C@H](CC(C)C)NC8=O)cc6)CC5)CC4)cc3)c(c2)CNC(=O)[C@@H]2CCCN2[C@H](C(=O)NC(C)(C)C)[C@H](C)NC(=O)[C@H]([C@@H](C)O)NC(=O)[C@H](CC(=O)O)NC1=O` , report its measured ELISA Assay Ratio β1/β7.
0.2

Given the entry `CC(C)C[C@@H]1NC(=O)C[C@H](CCCCN)N(C)C(=O)[C@H](CCCCNC(=O)CCOCCOCCOCCOCCOCCOCCOCCC(=O)NCCCC[C@@H]2NC(=O)[C@@H]3CCCN3[C@H](C(=O)NC(C)(C)C)[C@H](C)NC(=O)[C@H]([C@@H](C)O)NC(=O)[C@H](CC(=O)O)NC(=O)[C@H](CC(C)C)NC(=O)C[C@H](CCCCN)N(C)C2=O)NC(=O)[C@@H]2CCCN2[C@H](C(=O)NC(C)(C)C)[C@H](C)NC(=O)[C@H]([C@@H](C)O)NC(=O)[C@H](CC(=O)O)NC1=O` , report its measured ELISA Assay Ratio β1/β7.
0.9

Given the entry `CC(C)C[C@@H]1NC(=O)c2ccc(-c3ccc(N4CCN(C(=O)C56CC7CC(C5)CC(C(=O)N5CCN(c8ccc(-c9ccc%10cc9CNC(=O)[C@@H]9CCCN9[C@H](C(=O)NC(C)(C)C)[C@H](C)NC(=O)[C@H]([C@@H](C)O)NC(=O)[C@H](CC(=O)O)NC(=O)[C@H](CC(C)C)NC%10=O)cc8)CC5)(C7)C6)CC4)cc3)c(c2)CNC(=O)[C@@H]2CCCN2[C@H](C(=O)NC(C)(C)C)[C@H](C)NC(=O)[C@H]([C@@H](C)O)NC(=O)[C@H](CC(=O)O)NC1=O` , report its measured ELISA Assay Ratio β1/β7.
0.1

Given the entry `CC(C)C[C@@H]1NC(=O)c2ccc(-c3ccc(N4CCN(C(=O)c5ccc(C(=O)N6CCN(c7ccc(-c8ccc9cc8CNC(=O)[C@@H]8CCCN8[C@H](C(=O)NC(C)(C)C)[C@H](C)NC(=O)[C@H]([C@@H](C)O)NC(=O)[C@H](CC(=O)O)NC(=O)[C@H](CC(C)C)NC9=O)cc7)CC6)s5)CC4)cc3)c(c2)CNC(=O)[C@@H]2CCCN2[C@H](C(=O)NC(C)(C)C)[C@H](C)NC(=O)[C@H]([C@@H](C)O)NC(=O)[C@H](CC(=O)O)NC1=O` , report its measured ELISA Assay Ratio β1/β7.
0.2

Given the entry `CC(C)C[C@@H]1NC(=O)c2ccc(-c3ccc(N4CCN(C(=O)CCOCCOCCOCCOCCOCCOCCOCCOCCOCCOCCC(=O)N5CCN(c6ccc(-c7ccc8cc7CNC(=O)[C@@H]7CCCN7[C@H](C(=O)NC(C)(C)C)[C@H](C)NC(=O)[C@H]([C@@H](C)O)NC(=O)[C@H](CC(=O)O)NC(=O)[C@H](CC(C)C)NC8=O)cc6)CC5)CC4)cc3)c(c2)CNC(=O)[C@@H]2CCCN2[C@H](C(=O)NC(C)(C)C)[C@H](C)NC(=O)[C@H]([C@@H](C)O)NC(=O)[C@H](CC(=O)O)NC1=O` , report its measured ELISA Assay Ratio β1/β7.
0.6
